Where these numbers come from: paper PMC5647113

target system: hERG (KV11.1) (Homo sapiens)
Sequence (Q12809 whole entry): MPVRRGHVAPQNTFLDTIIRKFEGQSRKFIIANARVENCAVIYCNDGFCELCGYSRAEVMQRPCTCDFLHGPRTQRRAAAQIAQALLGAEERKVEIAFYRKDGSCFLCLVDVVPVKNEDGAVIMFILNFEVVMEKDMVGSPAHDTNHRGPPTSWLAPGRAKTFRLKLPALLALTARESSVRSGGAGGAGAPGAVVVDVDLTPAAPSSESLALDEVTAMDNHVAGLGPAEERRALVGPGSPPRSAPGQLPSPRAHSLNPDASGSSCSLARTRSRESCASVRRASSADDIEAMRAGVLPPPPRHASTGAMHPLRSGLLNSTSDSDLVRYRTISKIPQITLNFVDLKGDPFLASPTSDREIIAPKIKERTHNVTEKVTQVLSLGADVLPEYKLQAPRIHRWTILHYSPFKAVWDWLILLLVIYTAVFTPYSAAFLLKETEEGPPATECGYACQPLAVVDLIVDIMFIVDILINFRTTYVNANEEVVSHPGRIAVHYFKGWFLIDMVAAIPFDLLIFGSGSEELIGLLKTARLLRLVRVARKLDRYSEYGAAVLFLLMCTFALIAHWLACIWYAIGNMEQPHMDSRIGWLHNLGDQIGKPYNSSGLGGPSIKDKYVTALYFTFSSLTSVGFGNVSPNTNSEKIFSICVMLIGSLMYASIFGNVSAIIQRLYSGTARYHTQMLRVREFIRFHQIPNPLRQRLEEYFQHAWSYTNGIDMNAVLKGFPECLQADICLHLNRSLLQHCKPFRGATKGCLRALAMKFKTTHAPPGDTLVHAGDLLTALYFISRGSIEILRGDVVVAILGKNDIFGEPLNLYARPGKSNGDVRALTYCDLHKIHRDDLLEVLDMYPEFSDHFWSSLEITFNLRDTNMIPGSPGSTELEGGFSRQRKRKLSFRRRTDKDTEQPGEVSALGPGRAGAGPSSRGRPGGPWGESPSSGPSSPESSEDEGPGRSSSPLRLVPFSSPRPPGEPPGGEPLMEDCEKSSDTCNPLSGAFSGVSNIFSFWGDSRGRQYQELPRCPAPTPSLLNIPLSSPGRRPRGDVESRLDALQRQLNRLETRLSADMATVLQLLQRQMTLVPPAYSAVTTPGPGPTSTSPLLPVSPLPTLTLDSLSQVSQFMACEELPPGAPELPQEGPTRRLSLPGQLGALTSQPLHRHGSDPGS
assay info: automated patch clamp
experimental endpoint: IC50 (µM)

1) CC(=O)Nc1cccc2[nH]c(N[C@H](C)c3cccc(C(F)(F)F)c3)nc12 [AP14145] : 71.8
